Source of measurements: ChEMBL document CHEMBL4038349

# System: Plasmodium falciparum
# TEST SUMMARY: Antimalarial activity against Plasmodium falciparum D6 infected in type O+ human RBC assessed as reduction in [3H]hypoxanthine incorporation preincubated for 48 hrs followed by [3H]hypoxanthine addition measured after 96 hrs
# Assay type: functional
ASSAY READOUT: IC50 (µM)
State the answer as a number, implicitly in µM.

>>> readout_value("CCOC(=O)[C@H](Cc1ccccc1)NP(=O)(CCOCC(COCP(=O)(N[C@@H](Cc1ccccc1)C(=O)OCC)N[C@@H](Cc1ccccc1)C(=O)OCC)Cn1c(Br)nc2c(=O)[nH]c(N)nc21)N[C@@H](Cc1ccccc1)C(=O)OCC (stereo not given in full)")
5.6
>>> readout_value("CCOC(=O)[C@H](Cc1ccccc1)NP(=O)(CCOCC(COCP(=O)(N[C@@H](Cc1ccccc1)C(=O)OCC)N[C@@H](Cc1ccccc1)C(=O)OCC)Cn1cnc2c(=O)[nH]cnc21)N[C@@H](Cc1ccccc1)C(=O)OCC (stereo not given in full)")
1.4
>>> readout_value("CCOC(=O)[C@H](Cc1ccccc1)NP(=O)(CCOCC(Cn1cnc2c(=O)[nH]cnc21)OCCP(=O)(N[C@@H](Cc1ccccc1)C(=O)OCC)N[C@@H](Cc1ccccc1)C(=O)OCC)N[C@@H](Cc1ccccc1)C(=O)OCC (stereo not given in full)")
3.6

Entry CCOC(=O)[C@H](Cc1ccccc1)NP(=O)(CCOCC(COCP(=O)(N[C@@H](Cc1ccccc1)C(=O)OCC)N[C@@H](Cc1ccccc1)C(=O)OCC)Cn1ccc2c(=O)[nH]c(N)nc21)N[C@@H](Cc1ccccc1)C(=O)OCC (stereo not given in full) ; IC50 = 1.8

The molecule listed as CCOC(=O)[C@H](Cc1ccccc1)NP(=O)(CCOCC(COCP(=O)(N[C@@H](Cc1ccccc1)C(=O)OCC)N[C@@H](Cc1ccccc1)C(=O)OCC)Cn1cnc2c(=O)[nH]c(N)nc21)N[C@@H](Cc1ccccc1)C(=O)OCC (stereo not given in full) shows IC50 equal to 5.7

====

# TEST SYSTEM: Hypoxanthine-guanine phosphoribosyltransferase (Homo sapiens, UniProt P00492)
# Sequence (P00492 whole entry): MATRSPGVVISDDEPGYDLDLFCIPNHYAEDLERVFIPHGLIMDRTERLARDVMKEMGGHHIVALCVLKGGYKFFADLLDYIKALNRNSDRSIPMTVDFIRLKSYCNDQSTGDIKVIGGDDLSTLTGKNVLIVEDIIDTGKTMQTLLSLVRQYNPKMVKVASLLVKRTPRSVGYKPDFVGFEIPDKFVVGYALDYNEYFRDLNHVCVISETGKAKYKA
# TEST SUMMARY: Inhibition of human HGPRT using PRib-PP as the substrate by spectrophotometric method
Measured pKi by item
# log scale: pKi equals minus log10 of the concentration in mol/L

Consider the worked cases shown below.
>>> readout_value("Nc1nc2c(nc(Br)n2CC(COCCP(=O)(O)O)OCCP(=O)(O)O)c(=O)[nH]1 (stereo not given)")
6.40
>>> readout_value("Nc1nc2c(ncn2CC(COCCP(=O)(O)O)COCP(=O)(O)O)c(=O)[nH]1 (stereo not given)")
8.22
>>> readout_value("O=c1[nH]cnc2c1ncn2CC(COCCP(=O)(O)O)COCP(=O)(O)O (stereo not given)")
5.74
>>> readout_value("Nc1nc2c(nc(Br)n2CC(COCCP(=O)(O)O)COCP(=O)(O)O)c(=O)[nH]1 (stereo not given)")
7.00

Nc1nc2c(ccn2CC(COCCP(=O)(O)O)COCP(=O)(O)O)c(=O)[nH]1 (stereo not given) has a reported pKi of 7.00

====

# TEST SUMMARY: Cytotoxicity against human A549 cells after 4 days by Coulter counting method
# Format: cell-based
# log10 CC50 at 96 h per entry
Lab note - CC50 at 96 h converted to log10 from values in µM.

>>> readout_value("CCOC(=O)[C@H](Cc1ccccc1)NP(=O)(CCOCC(COCP(=O)(N[C@@H](Cc1ccccc1)C(=O)OCC)N[C@@H](Cc1ccccc1)C(=O)OCC)Cn1c(Br)nc2c(=O)[nH]c(N)nc21)N[C@@H](Cc1ccccc1)C(=O)OCC (stereo partly specified)")
2.18
>>> readout_value("CCOC(=O)[C@H](Cc1ccccc1)NP(=O)(CCOCC(COCP(=O)(N[C@@H](Cc1ccccc1)C(=O)OCC)N[C@@H](Cc1ccccc1)C(=O)OCC)Cn1cnc2c(=O)[nH]cnc21)N[C@@H](Cc1ccccc1)C(=O)OCC (stereo partly specified)")
1.91
>>> readout_value("CCOC(=O)[C@H](Cc1ccccc1)NP(=O)(CCOCC(COCP(=O)(N[C@@H](Cc1ccccc1)C(=O)OCC)N[C@@H](Cc1ccccc1)C(=O)OCC)Cn1ccc2c(=O)[nH]c(N)nc21)N[C@@H](Cc1ccccc1)C(=O)OCC (stereo partly specified)")
2.03

Measured log10 CC50 at 96 h of CCOC(=O)[C@H](Cc1ccccc1)NP(=O)(CCOCC(COCP(=O)(N[C@@H](Cc1ccccc1)C(=O)OCC)N[C@@H](Cc1ccccc1)C(=O)OCC)Cn1ccc2c(=O)[nH]cnc21)N[C@@H](Cc1ccccc1)C(=O)OCC (stereo partly specified) : 1.30

Please fill in: log10 CC50 at 96 h reported for CCOC(=O)[C@H](Cc1ccccc1)NP(=O)(CCOCC(COCP(=O)(N[C@@H](Cc1ccccc1)C(=O)OCC)N[C@@H](Cc1ccccc1)C(=O)OCC)Cn1c(Br)nc2c(=O)[nH]cnc21)N[C@@H](Cc1ccccc1)C(=O)OCC (stereo partly specified) = 1.56

Per the records, this molecule ( CCOC(=O)[C@H](Cc1ccccc1)NP(=O)(CCOCC(COCP(=O)(N[C@@H](Cc1ccccc1)C(=O)OCC)N[C@@H](Cc1ccccc1)C(=O)OCC)Cn1cnc2c(=O)[nH]c(N)nc21)N[C@@H](Cc1ccccc1)C(=O)OCC (stereo partly specified) ) has log10 CC50 at 96 h equal to 2.33
